assay: Solubility by HPLC; assay type: physicochemical; details: artificial intestinal juice, fassgf or other biorelevant
Attribute Measured: solubility (µg/mL)

# Chemical Smiles, Unit Abbrev, Obs Value
data = [
    ("c1cnc2ccc(Nc3ncnc4ccc(-c5cnn(C6CCNCC6)c5)cc34)cc2c1", "µg/mL", 220),
]

* * *

experiment: Pharmacokinetics study in mice; assay type: in vivo; settings: male, Kunming, mouse, plasma, po, p.o. 100 mg/kg
Attribute Measured: Cmax (ng/mL)

# Molecule, Unit Abbrev, Obs Value
rows = [
    ("c1cnc2ccc(Nc3ncnc4ccc(-c5cnn(C6CCNCC6)c5)cc34)cc2c1 [SMUZ106]", "ng/mL", 1190),
]

Hey, just so you know, these numbers are from paper PMC10220892.
